This collection of values is drawn from the supplement of paper PMC11061612.

# System: IGR-37 (Melanoma)
# METHOD: combination Emax (second highest fraction inhibited in the dose matrix, 72 h); higher = more inhibition; extreme values may be limits of the assay
MEASUREMENT_NAME: combination Emax

{"COMPOUND": "C=CCn1c(=O)c2cnc(Nc3ccc(N4CCN(C)CC4)cc3)nc2n1-c1cccc(C(C)(C)O)n1 [AZD1775] + CCc1c2c(nc3ccc(O)cc13)-c1cc3c(c(=O)n1C2)COC(=O)[C@]3(O)CC [SN-38] (first compound max 1 µM, partner max 0.3 µM)", "RECORDED_RESULT": 0.823}
{"COMPOUND": "Cc1cc2ncnn2cc1Nc1ncc2c(n1)n(C1CCOCC1)c(=O)n2C [AZD7648] + COc1cc([C@@H]2c3cc4c(cc3[C@@H](O[C@@H]3O[C@@H]5CO[C@@H](C)O[C@H]5[C@H](O)[C@H]3O)[C@H]3COC(=O)[C@H]23)OCO4)cc(OC)c1O [Etoposide] (first compound max 10 µM, 7x7, partner max 10 µM)", "RECORDED_RESULT": 0.703}

---

# Tested on: ONS-76 (Other Solid Carcinomas)
# METHOD: combination Emax (second highest fraction inhibited in the dose matrix, 72 h); higher = more inhibition; extreme values may be limits of the assay
MEASUREMENT_NAME: combination Emax

{"MOLECULE": "C=CCn1c(=O)c2cnc(Nc3ccc(N4CCN(C)CC4)cc3)nc2n1-c1cccc(C(C)(C)O)n1 [AZD1775] + O=C(c1cc(Cc2n[nH]c(=O)c3ccccc23)ccc1F)N1CCN(C(=O)C2CC2)CC1 [Olaparib] (first compound max 1 µM, partner max 10 µM)", "TARGET": "ONS-76 (Other Solid Carcinomas)", "MEASUREMENT_NAME": "combination Emax", "RECORDED_RESULT": 0.662}

---

# Test system: BICR22 (Oral Cavity Carcinoma)
# METHOD: combination Emax (second highest fraction inhibited in the dose matrix, 72 h); higher = more inhibition; extreme values may be limits of the assay
Returns Y if the recorded combination Emax is greater than or equal to 0.6, and N otherwise.

{"COMPOUND": "Cc1c2c(nn1C)CSCc1cc(n(C)n1)CSc1cc(c3ccccc3c1)OCCCc1c(C(=O)O)n(C)c3c-2c(Cl)ccc13 [AZD5991] + C[C@@H](Nc1cc(F)cc(F)c1)c1cc(C(=O)N(C)C)cc2c(=O)cc(N3CCOCC3)oc12 [AZD8186] (first compound max 1 µM, 7x7, partner max 3 µM)", "CLASS_LABEL": "N"}
{"COMPOUND": "CS(=O)(=O)CCNCc1ccc(-c2ccc3ncnc(Nc4ccc(OCc5cccc(F)c5)c(Cl)c4)c3c2)o1 [Lapatinib] + NC1(c2ccc(-c3nc4ccn5c(=O)[nH]nc5c4cc3-c3ccccc3)cc2)CCC1 [MK-2206] (first compound max 10 µM, 7x7, partner max 10 µM)", "CLASS_LABEL": "Y"}
{"COMPOUND": "CN(CCO)CC[C@H](CSc1ccccc1)Nc1ccc(S(=O)(=O)NC(=O)c2ccc(N3CCC([C@@H](O)c4ccccc4-c4ccc(Cl)cc4)CC3)cc2)cc1S(=O)(=O)C(F)(F)F [AZD4320] + CN(C)CCCOc1ccc(-c2ccc3ncc4c(c3c2)n(C2CCOCC2)c(=O)n4C)cn1 [AZD0156] (first compound max 1 µM, 7x7, partner max 1 µM)", "CLASS_LABEL": "N"}
{"COMPOUND": "CN(CCO)CC[C@H](CSc1ccccc1)Nc1ccc(S(=O)(=O)NC(=O)c2ccc(N3CCC([C@@H](O)c4ccccc4-c4ccc(Cl)cc4)CC3)cc2)cc1S(=O)(=O)C(F)(F)F [AZD4320] + CC(=O)O[C@H]1C(=O)[C@@]2(C)[C@H]([C@H](OC(=O)c3ccccc3)[C@]3(O)C[C@H](OC(=O)[C@H](O)[C@@H](NC(=O)c4ccccc4)c4ccccc4)C(C)=C1C3(C)C)[C@]1(OC(C)=O)CO[C@@H]1C[C@@H]2O [Paclitaxel] (first compound max 1 µM, 7x7, partner max 3 µM)", "CLASS_LABEL": "Y"}
{"COMPOUND": "C[C@@H](c1ccc2nccn2c1)n1nnc2ncc(-c3cnn(C)c3)nc21 [Savolitinib] + Cc1c2c(nn1C)CSCc1cc(n(C)n1)CSc1cc(c3ccccc3c1)OCCCc1c(C(=O)O)n(C)c3c-2c(Cl)ccc13 [AZD5991] (first compound max 1 µM, 7x7, partner max 1 µM)", "CLASS_LABEL": "N"}
{"COMPOUND": "CC1(C)CCC(CN2CCN(c3ccc(C(=O)NS(=O)(=O)c4ccc(NCC5CCOCC5)c([N+](=O)[O-])c4)c(Oc4cnc5[nH]ccc5c4)c3)CC2)=C(c2ccc(Cl)cc2)C1 [Venetoclax] + Cn1cnc2c(F)c(Nc3ccc(Br)cc3Cl)c(C(=O)NOCCO)cc21 [Selumetinib] (first compound max 1 µM, 7x7, partner max 3 µM)", "CLASS_LABEL": "N"}
